- Assay type: physicochemical
- assayConditions: stored at room temperature (21-25° C.), day 240
Reported Stability in Powder Concentrate (content by LCMSMS) values for a set of compounds
measuredMetric: Stability in Powder Concentrate (content by LCMSMS) (mg/g powder)

| compound | outputUnit | experimentalValue |
| --- | --- | --- |
| CCCCCc1cc(O)c2c(c1)OC(C)(C)[C@@H]1CCC(C)=C[C@@H]21 [D9 THC, delta-9-tetrahydrocannabinol, reference compound] | mg/g powder | 2.53 |
| CCCCCc1cc(O)c2c(c1)OC1(C)CCC3C1C2C3(C)C (stereo not drawn) | mg/g powder | 0.049 |
| Cc1c(C)c2c(c(C)c1OC(=O)CCC(=O)O)CC[C@@](C)(CCC[C@H](C)CCC[C@H](C)CCCC(C)C)O2 [α-Tocopheryl succinate] | mg/g powder | 1.84 |
| CC(=O)Oc1c(C)c(C)c2c(c1C)CCC(C)(CCC[C@H](C)CCC[C@H](C)CCCC(C)C)O2 (stereo partly drawn) [α-Tocopheryl acetate] | mg/g powder | 2.23 |
| CCCCCc1cc(O)c2c(c1)OC(C)(C)c1ccc(C)cc1-2 | mg/g powder | 0.467 |
| C=C(C)[C@@H]1CCC(C)=C[C@H]1c1c(O)cc(CCC)cc1O | mg/g powder | 0.052 |
